Target: CDK2/CycE (Homo sapiens)
Construct: GST; purchased ProQinase GmbH (Freiburg, Germany); host or cells: insect cells (Sf9)
Assay: CDK2/CycE high ATP kinase assay (TR-FRET, Method 2b)
Format: biochemical
Conditions: 2 mM ATP
Each item that follows carries a reported log10 of IC50.
Lab note - IC50 converted to log10 from values in nM.

CN1CCCCOc2cc(F)ccc2-c2cc(ncc2F)Nc2cc(CS(C)(=N)=O)cc1n2 (racemic) [Example 11] | 1.90
CS(=N)(=O)Cc1cc2cc(c1)OCCCCNc1cc(F)ccc1-c1nc(ncc1F)N2 (racemic) [Example 16] | 2.36
CS(=O)(Cc1cc2nc(c1)Nc1cc(c(F)cn1)-c1ccc(F)cc1OCCCCN2)=NC(=O)OCc1ccccc1 (racemic) [Example 2] | 3.91
CC(C)(C)OC(=O)N=S(C)(=O)Cc1cc2cc(c1)OCCCNc1cc(F)ccc1-c1nc(ncc1F)N2 (racemic) [Example 13] | 3.11
CS(=N)(=O)Cc1cc2cc(c1)Nc1ncc(F)c(n1)-c1ccc(F)cc1OCCCCN2 (racemic) [Example 25] | 2.87
CC(C)(C)OC(=O)N=S(C)(=O)Cc1cc2nc(c1)Nc1cc(c(F)cn1)-c1ccc(F)cc1OCCCCCN2 (racemic) [Example 9] | 2.40

Task: Any idea what log10 of IC50 was measured for CS(=N)(=O)Cc1cc2cc(c1)OCCCNc1cc(F)ccc1-c1nc(ncc1F)N2 (racemic) [Example 14] ?
Output: 1.97

Task: Okay, and C[S+]([O-])Cc1cc2nc(c1)OCCCCCc1cc(F)ccc1-c1cc(ncc1F)N2 (racemic) [Example 19] ?
Output: 3.15

Task: Okay, and CS(=N)(=O)Cc1cc2nc(c1)Nc1cc(c(F)cn1)-c1ccc(F)cc1OCCCCCN2 (racemic) [Example 10] ?
Output: 2.01

Task: Okay, and CN1CCCCNc2cc(F)ccc2-c2nc(ncc2F)Nc2cc(CS(C)(=N)=O)cc1c2.O=CO (racemic) [Example 17] ?
Output: 2.79

Task: Okay, and CS(=N)(=O)Cc1cc2nc(c1)OCCCCCc1cc(F)ccc1-c1cc(ncc1F)N2 (racemic) [Example 20] ?
Output: 2.96

Task: Okay, and CN1CCCCOc2cc(F)ccc2-c2nc(ncc2F)Nc2cc(CS(C)(=N)=O)cc1c2 (racemic) [Example 23] ?
Output: 3.12

Task: Okay, and CS(=N)(=O)Cc1cc2nc(c1)Nc1cc(c(F)cn1)-c1ccc(F)cc1OCCCN2 (racemic) [Example 8] ?
Output: 1.46
